- Assayed system: kinases of Table 5 (Homo sapiens, UniProt P51813)
- Sequence (P51813 whole entry): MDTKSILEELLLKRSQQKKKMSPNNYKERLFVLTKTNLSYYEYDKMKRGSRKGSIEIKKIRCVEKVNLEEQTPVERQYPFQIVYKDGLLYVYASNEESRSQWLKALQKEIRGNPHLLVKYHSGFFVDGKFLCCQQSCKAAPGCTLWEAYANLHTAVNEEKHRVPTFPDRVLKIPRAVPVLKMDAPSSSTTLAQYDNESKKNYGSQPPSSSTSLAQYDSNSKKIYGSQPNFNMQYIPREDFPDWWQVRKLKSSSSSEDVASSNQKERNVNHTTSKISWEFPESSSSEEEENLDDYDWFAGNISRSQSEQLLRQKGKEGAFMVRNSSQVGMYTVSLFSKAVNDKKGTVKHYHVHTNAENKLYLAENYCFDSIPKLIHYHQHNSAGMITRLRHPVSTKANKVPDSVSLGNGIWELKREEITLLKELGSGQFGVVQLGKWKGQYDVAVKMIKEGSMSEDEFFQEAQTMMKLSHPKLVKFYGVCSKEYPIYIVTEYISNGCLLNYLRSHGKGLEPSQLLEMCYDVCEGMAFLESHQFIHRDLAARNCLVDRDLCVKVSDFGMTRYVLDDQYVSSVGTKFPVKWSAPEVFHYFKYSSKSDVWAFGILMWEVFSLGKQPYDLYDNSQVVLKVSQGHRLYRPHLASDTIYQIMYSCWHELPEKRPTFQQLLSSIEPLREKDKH
- Method description: Further analysis of a plurality of inhibitors and a plurality of kinases (Table 5 inhibition results)
- Assay type: biochemical
- Set-up: scale not given here
- Test context: kinase BMX; inhibitor 100 uM

{"columns": ["Structure", "Inhibition level"],
 "data": [
  ["CC(C)(C)n1nc(-c2ccc(Cl)cc2)c2c(N)ncnc21", 2],
  ["COc1cc2ncnc(Nc3cccc(Cl)c3)c2cc1OC", 1],
  ["Cn1cc(C2=C(c3cn(CCCSC(=N)N)c4ccccc34)C(=O)NC2=O)c2ccccc21", 2],
  ["N#C/C(=C/c1ccc(O)c(O)c1)C(=O)NCc1ccccc1", 0],
  ["O=c1c(-c2ccc(O)cc2)coc2cc(O)cc(O)c12", 0]
]}
